B1: EEHEE_rd3_1049 (parent)
chain: TTVKLGDIKVTFDNPEKAKKYAQKLAKIYQLTVHVHGDTIHVK

# Variants of: B1
# assay-summary: folding stability dG (cDNA display proteolysis); higher = more stable
# settings: PBS, room temperature
Hi there, I'd appreciate the recorded folding stability dG for every entry that follows.
Answers are plain numbers, in kcal/mol.

TTVKLGVIKVTFDNPEKAKKYAQKLAKIYQLTVHVHGDTIHVK 2.52

Please report folding stability dG for every entry that follows.
1. TTVKLGDIKVTFNNPEKAKKYAQKLAKIYQLTVHVHGDTIHVK
2. TTVKLGDIKVTFDNPEKAKKYAQKLAKIYQLTVHVTGDTIHVK
3. TTVKLGDIKVTFDPPEKAKKYAQKLAKIYQLTVHVHGDTIHVK
4. TTVKLGDIKVTFDNPEKAKKYAQKLAKIYQLTVHVHGDTIHGK
5. TTVKLGDIKVTFDNPEKYKKYAQKLAKIYQLTVHVHGDTIHVK
6. TTVKLGDIKVTFDNPEKAKKYAQKLAKIYQLTVTVHGDTIHVK
7. TTVKLQDIKVTFDNPEKAKKYAQKLAKIYQLTVHVHGDTIHVK

Result:
1: 1.98; 2: 2.07; 3: 0.431; 4: 0.341; 5: 0.624; 6: 2.12; 7: 1.12

Please report folding stability dG for every entry that follows.
1. TTVKLGDIKVTFDNPEKAKKYASKLAKIYQLTVHVHGDTIHVK
2. TTVKLGDIKVTFDNPEKAKKYAQKLAKIYQLTVHVHGDTGHVK
3. TTVKLGDIKVTFDNPEKAKKYAQKLAKIYQLTVHVHGTTIHVK
4. TTVKLGDIKVTFINPEKAKKYAQKLAKIYQLTVHVHGDTIHVK
5. TTVKLGDIKVTFDNPEKAKKYAQKLAKIYQLTVAVHGDTIHVK
6. TTVKLGDIKVTFDNPEKAKKYAQKLAKIYQLTVHVPGDTIHVK

Result:
1.58
0.535
2
1.96
1.9
0.039
